biological target: ALK (C1156Y) (Homo sapiens, UniProt Q9UM73, C1156Y); assay: Biochemical kinase assay (Reaction Biology); settings: 10 μM ATP
Sequence (Q9UM73 19-1620 C1156Y): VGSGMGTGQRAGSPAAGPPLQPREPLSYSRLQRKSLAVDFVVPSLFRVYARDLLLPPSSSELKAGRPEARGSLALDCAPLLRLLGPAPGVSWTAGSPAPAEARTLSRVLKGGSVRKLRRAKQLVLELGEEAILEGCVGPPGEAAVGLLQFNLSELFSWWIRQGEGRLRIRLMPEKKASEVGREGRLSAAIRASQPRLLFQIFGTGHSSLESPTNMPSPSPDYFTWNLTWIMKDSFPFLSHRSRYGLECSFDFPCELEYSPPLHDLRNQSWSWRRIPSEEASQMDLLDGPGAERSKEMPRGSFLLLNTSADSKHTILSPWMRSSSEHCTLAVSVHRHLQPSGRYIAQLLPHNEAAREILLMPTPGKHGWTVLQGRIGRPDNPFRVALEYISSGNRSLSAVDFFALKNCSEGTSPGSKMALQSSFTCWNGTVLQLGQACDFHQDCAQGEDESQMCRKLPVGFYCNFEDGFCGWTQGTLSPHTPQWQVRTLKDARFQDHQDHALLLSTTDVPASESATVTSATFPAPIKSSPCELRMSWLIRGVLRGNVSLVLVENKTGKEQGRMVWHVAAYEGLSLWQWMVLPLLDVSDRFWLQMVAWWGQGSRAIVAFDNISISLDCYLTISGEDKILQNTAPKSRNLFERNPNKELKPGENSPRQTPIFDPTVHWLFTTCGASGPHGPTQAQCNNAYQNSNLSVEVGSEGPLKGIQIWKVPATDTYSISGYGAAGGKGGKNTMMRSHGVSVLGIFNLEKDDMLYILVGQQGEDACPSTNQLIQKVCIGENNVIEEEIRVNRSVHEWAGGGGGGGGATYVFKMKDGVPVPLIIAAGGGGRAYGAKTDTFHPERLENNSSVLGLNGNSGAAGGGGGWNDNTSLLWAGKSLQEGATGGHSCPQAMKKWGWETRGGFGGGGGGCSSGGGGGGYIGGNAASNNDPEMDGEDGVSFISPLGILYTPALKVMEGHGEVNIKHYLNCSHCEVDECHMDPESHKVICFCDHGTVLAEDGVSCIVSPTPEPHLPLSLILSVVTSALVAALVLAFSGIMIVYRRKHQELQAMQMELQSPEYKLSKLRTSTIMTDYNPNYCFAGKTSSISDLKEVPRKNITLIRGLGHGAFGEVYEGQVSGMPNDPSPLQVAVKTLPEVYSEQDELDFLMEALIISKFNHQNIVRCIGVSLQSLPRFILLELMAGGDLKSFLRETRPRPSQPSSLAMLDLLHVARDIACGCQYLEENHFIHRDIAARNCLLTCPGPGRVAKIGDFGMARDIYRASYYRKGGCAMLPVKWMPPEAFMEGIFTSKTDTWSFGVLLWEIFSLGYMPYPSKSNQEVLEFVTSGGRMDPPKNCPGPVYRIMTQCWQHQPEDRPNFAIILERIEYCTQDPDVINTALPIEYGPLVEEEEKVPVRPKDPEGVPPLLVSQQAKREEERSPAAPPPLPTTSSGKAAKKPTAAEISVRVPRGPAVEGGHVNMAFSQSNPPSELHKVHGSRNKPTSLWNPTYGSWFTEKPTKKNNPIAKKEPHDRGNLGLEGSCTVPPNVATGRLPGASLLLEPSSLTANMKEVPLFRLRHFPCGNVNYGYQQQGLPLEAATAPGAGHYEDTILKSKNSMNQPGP
Measured Endpoint: pIC50
Numbers only, as −log10 of the molar value.

Data point: O=C1NCC2(CC2)COc2ccc(F)cc2CN2c3nc4c1cnn4cc3OC[C@H]2C(F)F [Compound 2] ; pIC50 = 9.96

###

target: ALK (F1245C) (Homo sapiens, UniProt Q9UM73, F1245C); assay: Biochemical kinase assay (Reaction Biology); details: 10 μM ATP
Sequence (Q9UM73 19-1620 F1245C): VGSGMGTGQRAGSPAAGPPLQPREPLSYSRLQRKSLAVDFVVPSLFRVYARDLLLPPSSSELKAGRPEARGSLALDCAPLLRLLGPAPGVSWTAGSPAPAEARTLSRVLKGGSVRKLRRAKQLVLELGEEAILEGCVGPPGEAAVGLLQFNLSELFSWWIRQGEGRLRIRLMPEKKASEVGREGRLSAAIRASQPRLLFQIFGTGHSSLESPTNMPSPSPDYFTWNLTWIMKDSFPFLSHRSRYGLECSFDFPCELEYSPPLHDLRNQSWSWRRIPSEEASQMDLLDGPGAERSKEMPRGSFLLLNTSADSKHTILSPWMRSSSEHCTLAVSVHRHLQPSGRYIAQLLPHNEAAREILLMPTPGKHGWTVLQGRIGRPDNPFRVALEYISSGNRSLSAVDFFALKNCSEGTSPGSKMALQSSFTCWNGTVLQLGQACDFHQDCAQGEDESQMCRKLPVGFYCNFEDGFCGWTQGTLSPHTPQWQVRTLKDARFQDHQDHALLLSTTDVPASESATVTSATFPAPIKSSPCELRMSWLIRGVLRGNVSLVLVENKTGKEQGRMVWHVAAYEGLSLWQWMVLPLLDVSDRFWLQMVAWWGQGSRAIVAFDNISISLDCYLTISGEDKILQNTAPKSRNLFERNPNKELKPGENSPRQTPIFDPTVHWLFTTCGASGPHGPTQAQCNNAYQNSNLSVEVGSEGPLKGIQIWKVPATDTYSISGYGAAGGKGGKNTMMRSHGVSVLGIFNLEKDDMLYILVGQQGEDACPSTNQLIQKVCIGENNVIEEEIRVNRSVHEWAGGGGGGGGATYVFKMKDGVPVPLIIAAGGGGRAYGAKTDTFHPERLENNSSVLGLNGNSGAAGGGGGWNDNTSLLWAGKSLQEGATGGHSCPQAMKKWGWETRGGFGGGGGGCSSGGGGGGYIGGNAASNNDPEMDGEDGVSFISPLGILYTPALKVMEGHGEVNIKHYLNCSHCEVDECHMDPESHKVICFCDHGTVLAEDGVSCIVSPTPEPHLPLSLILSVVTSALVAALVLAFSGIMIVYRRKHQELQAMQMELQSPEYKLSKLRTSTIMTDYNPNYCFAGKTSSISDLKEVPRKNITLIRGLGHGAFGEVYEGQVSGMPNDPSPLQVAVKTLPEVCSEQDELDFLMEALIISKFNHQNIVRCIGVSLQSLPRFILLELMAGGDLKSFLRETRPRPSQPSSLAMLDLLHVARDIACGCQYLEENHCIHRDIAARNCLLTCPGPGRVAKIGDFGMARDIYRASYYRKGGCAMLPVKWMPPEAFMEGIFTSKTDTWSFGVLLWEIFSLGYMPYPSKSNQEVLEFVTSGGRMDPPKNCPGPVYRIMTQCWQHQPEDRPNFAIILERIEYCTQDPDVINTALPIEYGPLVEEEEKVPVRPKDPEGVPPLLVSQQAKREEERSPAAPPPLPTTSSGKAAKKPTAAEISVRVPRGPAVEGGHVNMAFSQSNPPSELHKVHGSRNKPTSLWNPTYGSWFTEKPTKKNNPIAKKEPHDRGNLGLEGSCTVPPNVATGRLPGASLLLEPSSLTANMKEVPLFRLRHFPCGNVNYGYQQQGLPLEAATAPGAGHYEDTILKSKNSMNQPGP
Measured Endpoint: IC50
Answer format: number, then unit.

Record for O=C1NCC2(CC2)COc2ccc(F)cc2CN2c3nc4c1cnn4cc3OC[C@H]2C(F)F under target or system ALK (F1245C) (Homo sapiens, UniProt Q9UM73, F1245C): IC50 reported as 0.41 nM

###

Experiment: Mouse pharmacokinetic study
Type: in vivo
Details: single oral dose (dose level not given), plasma
Description: To prepare 1 L of the vehicle solution (0.5% CMC and 1.0% Tween 80), 10 g of Tween 80 was mixed with 985 mL of water into a 1 L bottle. The mixture was stirred until Tween 80 was completely dissolved. […] The compound was suspended in the vehicle solution and the mice were orally administrated with a single dose of the compound at the selected dose level. […] The plasma was harvested into pre-labeled tubes and stored at −80° C. until analyzed by LC-MS/MS.
Measured Endpoint: AUC
Please state the number and follow it with the unit.

Example results:
Per the record, C[C@@H]1COc2ncc(F)cc2CN2c3nc4c(cnn4cc3OC[C@H]2C)C(=O)N1 [Comp. Ex. 1, reference compound] has AUC of 12300 ng·h/mL

For reference, reported AUC for O=C1NCC2(CC2)COc2ccc(F)cc2CN2c3nc4c1cnn4cc3OC[C@H]2C(F)F [Compound 2] stands at 14600 ng·h/mL

State the recorded AUC for every item in the following list.
1. C[C@@H]1COc2cn3ncc4c3nc2N1Cc1cc(F)cnc1OCC(C)(C)NC4=O [Comp. Ex. 2, reference compound]
2. CC1(C)COc2ccc(F)cc2CN2c3nc4c(cnn4cc3OC[C@H]2C(F)F)C(=O)N1 [Compound 1]

1: 18700 ng·h/mL; 2: 11900 ng·h/mL

###

target: ALK (L1198F) (Homo sapiens, UniProt Q9UM73, L1198F); assay: Biochemical kinase assay (Reaction Biology); conditions: 10 μM ATP
Measured Endpoint: pIC50
Numbers only, as −log10 of the molar value.

Form field pIC50 for item O=C1NCC2(CC2)COc2ccc(F)cc2CN2c3nc4c1cnn4cc3OC[C@H]2C(F)F on ALK (L1198F) (Homo sapiens, UniProt Q9UM73, L1198F): 9.07

###

So I've got a bunch of molecules here, and I need their solubility values.
assay: Solubility test in phosphate buffer; assay type: physicochemical; conditions: aqueous buffer, thermodynamic from solid; phosphate buffer pH 7.4, room temperature
Don't forget the unit after the value.

Would you mind listing solubility for each of the following molecules?
1. CC1(C)COc2ccc(F)cc2CN2c3nc4c(cnn4cc3OC[C@H]2C(F)F)C(=O)N1
2. C[C@@H]1COc2ncc(F)cc2CN2c3nc4c(cnn4cc3OC[C@H]2C)C(=O)N1 [Comp. Ex. 1, reference compound]
3. C[C@@H]1COc2cn3ncc4c3nc2N1Cc1cc(F)cnc1OCC(C)(C)NC4=O [Comp. Ex. 2, reference compound]
4. O=C1NCC2(CC2)COc2ccc(F)cc2CN2c3nc4c1cnn4cc3OC[C@H]2C(F)F

1: 3.3 µg/mL; 2: 7.9 µg/mL; 3: 4.9 µg/mL; 4: 2.6 µg/mL
